Recorded growth for the following compounds
Test system: 786-0 renal
protocolDetails: NCI-60 one-dose screen, 48 h (100 = growth as untreated, 0 = no growth, -100 = all killed)
measurementParameters: 10 µM unless noted
Compounds without any hit were thinned out: in the full panel of roughly 83,000, 20% have a hit.
Just the number please, in %, no unit attached.

# example entries with known answers
compound=CCc1c(C)c2cc3nc(NCc4ccccc4)oc3c(C)c2oc1=O assayedtarget="786-0 renal" recordedvalue=44.4
compound=ClC1c2ccccc2CCc2ccccc21 assayedtarget="786-0 renal" recordedvalue=93.5
compound=O=C(Nc1ccccc1Cl)c1c[nH]c(=O)c(-c2ccc(N3CCCOC4(CC4)C3)cc2)c1 assayedtarget="786-0 renal" recordedvalue=68.2
compound="CCN(CC)CCNCC(O)Cc1ccc(OC)cc1 (stereo not given)" assayedtarget="786-0 renal" recordedvalue=98.5
compound=C=C1c2c(Cl)ccc(O)c2C(O)=C2C(=O)[C@]3(O)C(O)=C(C(N)=O)C(=O)[C@@H](N(C)C)[C@@H]3[C@@H](O)[C@H]12 assayedtarget="786-0 renal" recordedvalue=8.22
compound="O=C1CCC(c2c(O)cc(O)c3c(=O)c(O)c(-c4ccc(O)c(O)c4)oc23)N1 (stereo not given)" assayedtarget="786-0 renal" recordedvalue=99.6
compound=O=C(NCCNc1nccc(-c2c(-c3cccc(O)c3)nc3sccn23)n1)c1ccc(N2CCOCC2)c(C(F)(F)F)c1 assayedtarget="786-0 renal" recordedvalue=60.1
compound=Nc1ccc(S(=O)(=O)Nc2cc(I)cc(I)c2)cc1 assayedtarget="786-0 renal" recordedvalue=95.5

Reported growth for `Cc1cc(Nc2ccc(Cl)c(Cl)c2)nc(N)n1` was 78.9

Lab note: measured growth of `COc1cc(C(=O)C[n+]2ccccc2)ccc1OC(C)=O` was 90.9

* * *

Tested on: UO-31 renal
protocolDetails: NCI-60 one-dose screen, 48 h (100 = growth as untreated, 0 = no growth, -100 = all killed)
measurementParameters: 10 µM unless noted
This is part of a sample that, as a whole, favours compounds with a hit. Of some 83,000 tested, about 20% had one in any assay.
metric: growth (%)
Write the number in % without appending the unit.

molecule=O=C(O)c1ccc(-c2nn(-c3ccc(C(=O)O)cc3)cc2/C=N/Nc2c(F)c(F)cc(F)c2F)cc1 recordedvalue=92.4
molecule=O=C1/C(=C/c2cccc3cnccc23)Cc2cc(F)ccc21 recordedvalue=70.4
molecule=O=C(Nc1ccccc1Cl)c1c[nH]c(=O)c(-c2ccc(N3CCCOC4(CC4)C3)cc2)c1 recordedvalue=65.7

Item: `CN(C)c1ccc(/C=c2\s/c(=C\C(=O)C(C)(C)C)[nH]c2=O)cc1` | growth: 92.5

The molecule COc1ccc2c(c1)OC(N(C(C)=O)C(C)=O)=C(C#N)C2c1ccc(F)cc1 (stereo unspecified) showed growth equal to 45.8

Given item `CCCCOc1c(N)cccc1C(=O)OCCN(CC)CC` , the value recorded as its growth is 80.8

GET /value?item= `CCCCOc1c(N)cc(Cl)cc1C(=O)OCCN(CC)CC` &field=growth returns 82.3

# growth of `CCCCCCCCCCCCCCCCNc1ccccc1` = 57.9

For `Cn1c2ccccc2c2ssc(=S)c21` the molecule record lists growth as 84

Looking up `CCOc1ccc(NC2=C(Cl)C(=O)c3ccccc3C2=O)cc1` , I see its growth listed as 77.9

The reported value for `C=CCOc1ccc(/C(Cl)=N/N=C(\Cl)c2cc(OC)c(OC)c(OC)c2)cc1` in terms of growth is 68

* * *

growth reference
System: SF-539 CNS
protocolDetails: NCI-60 one-dose screen, 48 h (100 = growth as untreated, 0 = no growth, -100 = all killed)
measurementParameters: 10 µM unless noted
The panel holds about 83,000 compounds, 20% with a hit somewhere; the sample as a whole holds those more often.
Response body: numeric value in %, unit text excluded.

Solved entries:
smilesnotation=CCOC(=O)CSc1nnc(-c2cc3c([nH]c4ccccc43)c(-c3cccc(O)c3)n2)n1-c1ccc(C)cc1 uom=% recordedvalue=78
smilesnotation=FC(F)(F)c1cccc([Si](F)(c2cccc(C(F)(F)F)c2)c2cccc(C(F)(F)F)c2)c1 uom=% recordedvalue=101
smilesnotation=Nc1nc(=S)ss1 uom=% recordedvalue=111
smilesnotation=Cc1ccc(/C=C2/C(=O)Nc3cc(Cl)c(-c4csc(N)n4)cc32)cc1 uom=% recordedvalue=81.6

Switching to the query record.
growth recorded for this compound, `COc1ccc(-c2nn(-c3ccc(NC(=O)c4cc(Cl)cc(Cl)c4)cc3)cc2-c2ccncc2)cc1Cl` , is 47.8

* * *

System: UACC-257 melanoma
protocolDetails: NCI-60 one-dose screen, 48 h
measurementParameters: 10 µM unless noted
Protocol: Cells are grown in 96 well plates and exposed to the test compound for 48 hours. Compounds are tested at a single concentration, which is 10^-5 M for most compounds. The reported endpoint is percent growth (GI% or GIPRCNT), where numbers from 0 - 100% represent growth inhibition, and numbers from -100% - 0 represent cell death. For example, a value of 40 represents 60% growth inhibition. A value of 0 means no net growth occurred over the course of the experiment. […]
Compounds without any hit were thinned out: in the full panel of roughly 83,000, 20% have a hit. Active and inactive are the calls of the source. How the source made its calls: active means growth percent below 10; inactive means the rest.
Pick one and only one: true (1) for active, false (0) for inactive

compound=C=C1C(=O)O[C@H]2[C@H]1CC/C(C(=O)Nc1ccc(OC)c(C(N)=O)c1O)=C\CC[C@@]1(C)O[C@@H]21 labelclass="false (0)"
compound=Nc1c(C(=O)O)[nH]c(=O)[nH]c1=O labelclass="false (0)"
compound=Clc1ccc2c(c1)nnn1c3ncccc3c(Br)c21 labelclass="false (0)"
compound=O=S(=O)(CCN1CCOCC1)Nc1cc(-c2ccc3ncnc(Nc4ccc(F)c(Cl)c4)c3c2)cnc1Cl labelclass="true (1)"
compound=O=c1c2ccccc2sc2c(N3CCCC3)nc3ccccc3c12 labelclass="false (0)"
compound="Cc1ccc2oc(=O)cc(C3C(C#N)=C(N)Oc4c3ccc3ccccc43)c2c1 (stereo not given)" labelclass="false (0)"

Assay outcome for `COc1cc(NS(C)(=O)=O)ccc1Cc1c2ccccc2nc2ccccc12` : what was it?
false (0)

Give the logged outcome of this assay for the following compound: `CCOC(=O)c1[nH]c(-c2ccc(Cl)cc2)cc1-c1cccnc1`
false (0)

I'd appreciate the recorded outcome for `CC(C)(C)OC(=O)N1CC(Cn2cc(C(F)(F)F)c3c(Cl)ncnc32)C1` from this test.
true (1)

Outcome? `CCOC(=O)c1noc2c1CCc1cn(Cc3cc(OC)cc(OC)c3)cc1-2`
false (0)

* * *

System: MDA-MB-231 breast
protocolDetails: NCI-60 one-dose screen, 48 h
measurementParameters: 10 µM unless noted
This is part of a sample that, as a whole, favours compounds with a hit. Of some 83,000 tested, about 20% had one in any assay. The source made the active and inactive calls. The calls were made as follows: active = growth percent below 10; inactive = the rest.
Choose one outcome from this list and give only that: label 1 (active), label 0 (inactive)

Use these answered entries as a reference point.
compound=CN(C)CC/C=C1\c2ccccc2Sc2ccc(Cl)cc21 labelclass="label 0"
compound=C[C@H]1C=C(C[C@@H](O)CCCCCCCCCC[C@@H](O)[C@H]2CCC(=O)O2)C(=O)O1 labelclass="label 0"
compound=C=C1C(=O)O[C@H]2[C@H]1CC/C(COC(=O)c1ccc3ccccc3c1)=C\CC[C@@]1(C)O[C@@H]21 labelclass="label 1"

Name the outcome recorded for `O[C@@H]1CCO[C@H](c2ccc3ccccc3c2)C1` in the assay.
label 0

Record request — test call for `CCN(CC)CCNc1ccc([N+](=O)[O-])c2sc3cc(Cl)ccc3c(=O)c12`
label 0

How did this test come out for `CN(C)c1ccc(/C=N/N=C(N)N)cc1` ?
label 0

GET /call?item= `CC(C)(CCN=C(N)Nc1ccccn1)c1ccc(C(F)(F)F)cc1` returns the recorded outcome of this test.
label 1

Fill in: this test's call for COc1ccc2c(c1)OC(N)=C(C#N)C2c1ccc(F)c(F)c1 (configuration not stated) is ___
label 0

Tell me the assay call for `C=C1C(=O)O[C@H]2[C@H]1CC/C(COC(=O)c1ccc(Br)cc1)=C\CC[C@@]1(C)O[C@@H]21` please.
label 1

What outcome does the record of this test show for `Cc1ncc(CO)c(C(=O)O)c1O` ?
label 0

For `CC(=S)Nc1ccccc1` , what call appears in the results of this test?
label 0

Name the outcome recorded for `O=C(NCCNc1nccc(-c2c(-c3cccc(O)c3)nc3sccn23)n1)c1ccc(N2CCOCC2)c(C(F)(F)F)c1` in the assay.
label 0

For `COc1ccccc1P(c1ccccc1OC)c1ccccc1OC` , what call appears in the results of this test?
label 0

Can you look up the reported call for `O=C(Nc1ccc(-n2cc(-c3ccncc3)c(-c3ccc(O)c(Cl)c3)n2)cc1)c1cc(Cl)cc(Cl)c1` for me?
label 1

* * *

Tested on: SNB-75 CNS
protocolDetails: NCI-60 one-dose screen, 48 h (100 = growth as untreated, 0 = no growth, -100 = all killed)
measurementParameters: 10 µM unless noted
About 83,000 compounds went through this panel and 20% of them were active in at least one assay; those are over-represented in the sample as a whole.
metric: growth (%)
# output: bare number, implied unit %

molecule=COc1ccccc1C(OC(C)=O)OC(C)=O recordedvalue=96.4
molecule=COc1ccc(/C=C2/C(=O)Nc3cc(Cl)c(-c4csc(N)n4)cc32)cc1 recordedvalue=37.5
molecule="CC(C)(C)NC(C1=CC(C)(C)c2ccccc2C1=O)c1ccccc1 (configuration not stated)" recordedvalue=16.3

Entry `COc1ccc(-c2nnc(SCC(=O)N3CCN(c4cc5c(cc4F)c(=O)c(C(=O)O)cn5C4CC4)CC3)o2)cc1OC` under SNB-75 CNS had growth of 98.4

growth for SNB-75 CNS with input `Nc1ccc(S(=O)(=O)Nc2cc(I)cc(I)c2)cc1` equals 97.6

The value of growth recorded for `CC(=O)n1cc(/C=C2\N=C(c3ccc(Cl)cc3)N(c3ccc(S(=O)(=O)Nc4nccs4)cc3)C2=O)c2ccccc21` when tested on SNB-75 CNS reads 92.2

Item: `COc1ccc(-c2nn(-c3ccc(NC(=O)c4ccc(Cl)c(C(F)(F)F)c4)cc3)cc2-c2ccncc2)cc1Cl` | System: SNB-75 CNS | growth: 31.1

`Cc1ccc(=O)n(-c2ccc(Br)cc2F)c1` tested on SNB-75 CNS gave growth: 74.9

Lab note: molecule N#Cc1c(N)nc2c(c1N)C(c1ccc(Cl)cc1)C1=C(CCCC1=O)N2c1sc2c(c1C#N)CCCC2 (configuration not stated) tested on SNB-75 CNS; recorded growth was 91.4

Noted growth for `O=C1C(Cl)=C(Nc2cccc3cc4ccccc4nc23)C(=O)c2ccccc21` , tested on SNB-75 CNS: 71.9

Known value: SNB-75 CNS growth of the molecule `COC1=C(OC)C(=O)C=CC1=O` equals 110

Case `C#CC(=O)/C=C/CCCCCCC#CC(=O)CCC(=O)C#CCCCCCC/C=C/C(=O)C#C` , SNB-75 CNS, growth recorded as 56

growth on SNB-75 CNS for `CCOC(=O)c1[nH]c(-c2ccc(Cl)cc2)cc1-c1cccnc1` is -1.8

Entry `O=C1/C(=C/c2cccc3cnccc23)Cc2cc(F)ccc21` , SNB-75 CNS data, growth value: 107
